Target: Chk1 (Homo sapiens)
Assay: Cellular Chk1 assay, serine 296 phospho-epitope immunoblot in HT-29 cells
Type: cell-based
Conditions: HT-29 colon carcinoma cells, 18-hour assay, anti-Chk1 serine 296 phospho-epitope antibody
RECORDED_ENDPOINT: IC50 (nM)
Provide only the numeric value, understood in nM.

IC50 for COc1cc(C2(F)CCN(C)CC2)ccc1-c1cc(Nc2cnc(C#N)cn2)n[nH]1 [Compound 1] ?
0.511

---

Target: Chk1 (Homo sapiens, UniProt O14757)
Sequence (O14757 whole entry): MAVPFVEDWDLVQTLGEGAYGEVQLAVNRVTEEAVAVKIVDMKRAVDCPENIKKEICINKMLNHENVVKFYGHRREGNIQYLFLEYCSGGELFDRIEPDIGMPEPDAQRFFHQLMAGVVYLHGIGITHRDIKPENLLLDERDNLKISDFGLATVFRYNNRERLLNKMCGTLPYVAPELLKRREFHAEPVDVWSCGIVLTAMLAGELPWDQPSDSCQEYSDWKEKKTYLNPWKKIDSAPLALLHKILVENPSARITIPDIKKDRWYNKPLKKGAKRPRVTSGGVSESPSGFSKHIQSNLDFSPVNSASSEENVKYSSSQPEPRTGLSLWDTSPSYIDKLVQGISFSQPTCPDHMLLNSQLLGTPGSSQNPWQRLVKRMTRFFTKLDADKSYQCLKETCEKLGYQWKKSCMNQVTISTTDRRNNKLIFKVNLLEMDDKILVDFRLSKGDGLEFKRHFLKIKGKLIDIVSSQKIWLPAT
Assay: Chk1 enzymatic assay
Assay type: biochemical
Settings: 10 μM [γ-33P]-ATP, 20 μM peptide substrate (SEQ ID NO:1); read-out: IC50, enzymatic potency against Chk1
RECORDED_ENDPOINT: IC50 (nM)
Quick note: give the figure in nM, leave out the unit.

Record request: IC50 value, item COc1cc(C2(F)CCN(C)CC2)ccc1-c1cc(Nc2cnc(C#N)cn2)n[nH]1
0.124
